The reported measurements were obtained from patent US11590116B2.

- system-tested: recombinant human ALK5 (TGF-βR1) protein (Homo sapiens)
- Construct: purchased Life Technologies PR9075A
- method-description: Biochemical ALK5 (TGF-βR1) assay to measure pKi (LANCE Ultra ULight kinase assay)
- test-context: apparent pKi from pIC50 by Cheng-Prusoff, read-out: ALK5 pKi (converted)
readout-name: Ki

// known answers, use as guide
compound	Ki
Cc1cccc(-c2nnn(C)c2-c2ccc3ncc(N4CCC(N(C)C)C4)cc3c2)n1 (racemic)	0.0398 to 0.316 nM
Cc1cccc(-c2n[nH]cc2-c2ccc3ncc(N4CCCN(CC(C)C)CC4)cc3n2)n1	0.0398 to 0.316 nM
Cc1cccc(-c2[nH]cnc2-c2ccc3ncc(C(=O)OC[C@H]4CCCCN4)cc3c2)n1	0.398 to 3.16 nM
Cc1cccc(-c2[nH]cnc2-c2ccc3ncc(C(=O)OC4CCCCNC4)cc3c2)n1 (stereo not shown)	0.0398 to 0.316 nM

Query: What value of Ki has been reported for the following compound? `Cc1cccc(-c2n[nH]cc2-c2ccc3ncc(N4CCN(CCO)CC4)cc3n2)n1`
Response: < 0.0316 nM

Query: What value of Ki has been reported for the following compound? Cc1cccc(-c2n[nH]cc2-c2ccc3ncc(N4C[C@@H]5CCN[C@@H]5C4)cc3n2)n1 (racemic)
Response: < 0.0316 nM

Query: What value of Ki has been reported for the following compound? `Cc1cccc(-c2[nH]ncc2-c2ccc3nccc(C(=O)O[C@H]4CC[C@@](C)(N)CC4)c3c2)n1`
Response: 3.98 to 31.6 nM

* * *

Each entry below carries its recorded Ki.
- system-tested: recombinant human ALK5 (TGF-βR1) protein (Homo sapiens, UniProt P36897)
- Construct: purchased Life Technologies PR9075A
- method-description: Biochemical ALK5 (TGF-βR1) assay to measure pKi (LANCE Ultra ULight kinase assay)
- test-context: apparent pKi from pIC50 by Cheng-Prusoff, read-out: ALK5 pKi (converted)

// known answers, use as guide
compound	readout-name	assay-value
Cc1cccc(-c2[nH]cnc2-c2ccc3ncc(-c4ccc(C(=O)O[C@@H]5CCN(C)C5)s4)cc3c2)n1	Ki	0.0398 to 0.316 nM
Cc1cccc(-c2n[nH]cc2-c2ccc3ncc(C4=CCC(NCc5ccccc5)CC4)cc3n2)n1 (stereo not shown)	Ki	< 0.0316 nM
Cc1cccc(-c2[nH]cnc2-c2ccc3ncc(C(=O)O[C@H]4CCCNC4)cc3c2)n1	Ki	0.0398 to 0.316 nM

Continue with the next compound.
Query: What value of Ki has been reported for the following compound? `Cc1cccc(-c2[nH]cnc2-c2ccc3ncc(-c4ccc(C(=O)OC5CNC5)nc4)cc3c2)n1`
Response: 0.0398 to 0.316 nM

* * *

- system-tested: recombinant human ALK5 (TGF-βR1) protein (Homo sapiens, UniProt P36897)
- Construct: purchased Life Technologies PR9075A
- Sequence (P36897 34-503): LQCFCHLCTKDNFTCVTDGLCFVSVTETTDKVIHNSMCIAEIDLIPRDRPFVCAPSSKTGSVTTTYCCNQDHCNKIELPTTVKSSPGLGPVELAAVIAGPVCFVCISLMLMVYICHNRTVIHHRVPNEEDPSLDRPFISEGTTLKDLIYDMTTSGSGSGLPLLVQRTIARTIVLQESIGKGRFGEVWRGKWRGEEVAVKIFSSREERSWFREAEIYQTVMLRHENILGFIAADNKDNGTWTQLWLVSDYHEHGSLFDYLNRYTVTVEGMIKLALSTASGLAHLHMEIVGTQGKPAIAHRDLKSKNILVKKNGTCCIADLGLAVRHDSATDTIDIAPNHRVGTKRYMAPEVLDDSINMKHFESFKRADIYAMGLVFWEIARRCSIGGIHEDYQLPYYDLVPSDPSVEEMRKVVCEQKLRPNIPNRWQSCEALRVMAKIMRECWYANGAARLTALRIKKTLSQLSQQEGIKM
- method-description: Biochemical ALK5 (TGF-βR1) assay to measure pKi (LANCE Ultra ULight kinase assay)
- test-context: apparent pKi from pIC50 by Cheng-Prusoff, read-out: ALK5 pKi (converted)
Each entry below carries its recorded Ki.

// known answers, use as guide
compound	assay-value
Cc1cccc(-c2n[nH]cc2-c2ccc3ncc(N4CCNC[C@H]4C)cc3n2)n1 [Compound 271]	0.0398 to 0.316 nM
Cc1nc(-c2n[nH]cc2-c2ccc3ncc(-c4ncn5c4NCC5)cc3n2)ccc1F [Compound 284]	0.0398 to 0.316 nM
Cc1cccc(-c2[nH]cnc2-c2ccc3ncc(C4=CCN(C(=O)C5CNC5)CC4)cc3c2)n1 [Compound 1036]	0.0398 to 0.316 nM
CN[C@H]1CC[C@@H](OC(=O)c2cnc3ccc(-c4nc[nH]c4-c4cccc(C)n4)cc3c2)CC1 [Compound 1071]	0.398 to 3.16 nM
Cc1cccc(-c2[nH]cnc2-c2ccc3ncc(-c4csc(C(=O)OCCN5CCC[C@H](N)C5)c4)cc3c2)n1 [Compound 1250]	0.398 to 3.16 nM

Query: Given the entry Cc1cccc(-c2n[nH]cc2-c2ccc3ncc(C4=CCC(N)CC4)cc3n2)n1 (stereo not shown) [Compound 21] , what Ki was observed with recombinant human ALK5 (TGF-βR1) protein (Homo sapiens, UniProt P36897)?
Response: < 0.0316 nM

Query: Given the entry Cc1cccc(-c2[nH]ncc2-c2ccc3ncc(C(=O)OCCN4C[C@@H](C)N[C@@H](C)C4)cc3c2)n1 [Compound 1238] , what Ki was observed with recombinant human ALK5 (TGF-βR1) protein (Homo sapiens, UniProt P36897)?
Response: 0.0398 to 0.316 nM
